target: PRMT5 (Homo sapiens, UniProt O14744); construct: purchased Viva (custom protein); assay: PRMT5 biochemical IC50 assay with no cofactor; settings: PRMT5, no cofactor; read-out: No Cofactor/rel IC50
Sequence (O14744 whole entry): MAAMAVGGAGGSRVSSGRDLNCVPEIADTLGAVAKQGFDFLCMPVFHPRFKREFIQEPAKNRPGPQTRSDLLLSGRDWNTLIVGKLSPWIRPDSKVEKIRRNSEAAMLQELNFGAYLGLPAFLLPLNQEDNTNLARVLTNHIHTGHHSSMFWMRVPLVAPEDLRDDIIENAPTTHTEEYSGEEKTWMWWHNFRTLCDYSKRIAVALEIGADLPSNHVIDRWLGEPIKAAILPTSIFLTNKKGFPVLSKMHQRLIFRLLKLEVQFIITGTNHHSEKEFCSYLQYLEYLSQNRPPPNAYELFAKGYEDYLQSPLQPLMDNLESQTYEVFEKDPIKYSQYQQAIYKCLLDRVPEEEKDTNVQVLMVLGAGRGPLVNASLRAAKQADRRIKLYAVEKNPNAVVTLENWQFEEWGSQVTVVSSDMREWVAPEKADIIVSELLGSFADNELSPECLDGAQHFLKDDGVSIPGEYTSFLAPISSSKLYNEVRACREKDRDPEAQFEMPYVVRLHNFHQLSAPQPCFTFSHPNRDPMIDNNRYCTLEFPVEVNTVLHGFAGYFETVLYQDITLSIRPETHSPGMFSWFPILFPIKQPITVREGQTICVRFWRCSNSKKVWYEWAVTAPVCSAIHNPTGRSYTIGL
Sequence (Q9BQA1 whole entry partner): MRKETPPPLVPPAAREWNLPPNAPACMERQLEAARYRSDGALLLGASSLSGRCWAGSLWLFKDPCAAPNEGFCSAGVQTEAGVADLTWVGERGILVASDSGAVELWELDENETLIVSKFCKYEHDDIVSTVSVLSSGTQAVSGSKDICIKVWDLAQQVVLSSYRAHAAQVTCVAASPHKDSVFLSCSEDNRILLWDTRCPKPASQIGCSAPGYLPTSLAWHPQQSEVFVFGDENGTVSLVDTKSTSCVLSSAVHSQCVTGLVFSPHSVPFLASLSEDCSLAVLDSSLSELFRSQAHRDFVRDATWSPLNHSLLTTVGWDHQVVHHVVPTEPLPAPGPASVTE
assay_endpoint: IC50

Example cases with answers are listed next.
- C[C@@H]1CC[C@@H](c2ccc(O)nc2)N(C(=O)C(=O)Nc2cncc(C(N)=O)c2)C1 (single isomer, unassigned) [Compound 351]: > 500 nM
- COc1ncc(NC(=O)C(=O)N2C[C@@H](C)CC[C@@H]2c2ccc(F)cc2)cc1C(F)F [Compound 1057]: 50 to 500 nM
- Cc1cncc(NC(=O)C(=O)N2C[C@H](C)CC[C@H]2c2ccc(O)cc2)c1 (racemic) [Compound 557]: 50 to 500 nM
- CCc1cc(NC(=O)C(=O)N2C[C@H](C)CC[C@H]2c2ccc3sc(C)nc3c2)cnc1N (single isomer, unassigned) [Compound 801]: > 500 nM
- COc1ncc(NC(=O)C(=O)N2C[C@H](C)CC[C@H]2c2cc(F)c(F)c(F)c2)cc1C(N)=O (single isomer, unassigned) [Compound 742]: 50 to 500 nM

Next item in the queue.
Query :: Given Cc1ncc(NC(=O)C(=O)N2C[C@H](C)CC[C@H]2c2ccc3c(c2)CCC(=O)N3)cc1C(F)F (racemic) [Compound 803] , state its recorded IC50.
Result :: 50 to 500 nM
